The reported numbers originate from PubChem BioAssay (NCI).

Test system: HS 578T breast
Procedure Summary: NCI tumour cell line growth inhibition, 48 h
TGI for assorted compounds

> print(dat)
                                    compound  recorded.metric    result
 1  COc1ccc(-c2nc(-c3nc4ccc(F)cc4[nH]3)c3ccccn23)cc1              TGI  > 100 µM
 2  C1CC2CN(CCCN3CCOCC3)C(C1)O2 (stereo unspecified)              TGI  > 100 µM
 3  COc1cccc(N=N/C(=N\NC(=O)c2ccc(C)cc2)c2ccc(N(CCC#N)CCC#N)cc2C)c1              TGI  > 100 µM
 4        CCOP(=O)(OCC)/C(=C/c1cccs1)CC(C)=O              TGI  > 100 µM
 5  CCCCCCCCCCCCCCCCCCNc1nc(=O)n(C2CC(O)C(COP(=O)(O)O)O2)cc1F (stereo unspecified)              TGI  > 100 µM
 6  CCOP(=O)(O)CN1CCNCCN(CP(=O)(O)OCC)CCNCC1              TGI  > 100 µM
 7                C=CCOn1c(C=C)nc2ccc(C)cc21              TGI  > 100 µM
 8  c1ccc(-c2nc(N3CCOCC3)c3c4c(sc3n2)CCCCCC4)nc1              TGI   42.3 µM
 9                  C#Cc1nc2ccccc2c(=O)[nH]1              TGI   7.12 µM
10  CCN=C1C=CC(=C(c2ccc(N(CC)CC)cc2)c2ccc(N(CC)CC)cc2)c2ccccc21              TGI  0.533 µM

Using known records, supply TGI for Cc1nc(Nc2cccnc2)sc1C(=O)/C=C/c1ccc(Cl)cc1 > 100 µM

* * *

System: HL-60(TB) leukemia
Procedure Summary: NCI tumour cell line growth inhibition, 48 h
Recorded Metric: TGI

Check out these entries, answers already filled in.
Molecule	Recorded Metric	Result
NNC(=O)C(=O)N/N=C1\CCC(=O)CC1C(=O)CCC(=O)Nc1ccc(Cl)cc1 (stereo unspecified)	TGI	> 100 µM
C#Cc1c(C)c(/C=C/C(C)=C/C(=O)OC)n(C)c1C	TGI	79.4 µM
CC(C)OP(=O)(OC(C)C)/C(N)=N/Nc1ccc([N+](=O)[O-])cc1	TGI	> 100 µM

Proceeding to the next molecule to report its TGI.
Supply TGI value. Item: COc1cc(C)c(C2NC(=O)c3ccccc3N2)cc1C (stereo unspecified) 0.396 µM

* * *

Tested on: RXF-631 renal
Procedure Summary: NCI tumour cell line growth inhibition, 48 h
Recorded Metric: TGI (µM)
Note: unit µM is implicit; provide only the numeric part.

> print(dat)
                                   molecule   study.target  recorded.metric  result
1  CC(C)Cc1ccc(C(C)CC2=CCC(CN(C)C)C2=O)cc1 (centres undefined)  RXF-631 renal              TGI    30.5

From here, focus on the item given below.
Please give measured TGI of the following entry: O=C1/C(=C/c2ccccc2)CN(C(=O)CCN2CCCC2)C/C1=C\c1ccccc1 13.2

* * *

System: SN12C renal
Procedure Summary: NCI tumour cell line growth inhibition, 48 h
Each entry below carries its recorded TGI.

Compound	Study Target	TGI
O=c1ncccn1C1OC(CO)C(O)C1O (centres undefined)	SN12C renal	> 100 µM
C=CCC1C(O[Si](C)(C)C(C)(C)C)C(CO[Si](C)(C)C(C)(C)C)OC1n1ccc(=O)[nH]c1=O (centres undefined)	SN12C renal	2.8 µM
CC1=NN(C(=O)c2ccc(Cl)cc2)C(=O)/C1=C/c1ccccc1O	SN12C renal	> 100 µM
N.N.N.N.N.O=[N+]([O-])[O-].[Co+3].[O-][Cl+3]([O-])([O-])[O-]	SN12C renal	> 100 µM
CC(C)(C)[Si](C)(C)OCc1cccc(OCCOc2cccc(CO[Si](C)(C)C(C)(C)C)c2[N+](=O)[O-])c1[N+](=O)[O-]	SN12C renal	> 100 µM

Input COc1cc2cc(C(=O)N3CC(COS(C)(=O)=O)c4ccc(O)cc43)[nH]c2c(OC)c1OC (centres undefined) , output reported TGI. 0.0165 µM

Indicate the recorded TGI value for this compound: COc1cc(C2C(Cl)C(=O)N2c2c(C)n(C)n(-c3ccccc3)c2=O)ccc1O (centres undefined) 37.9 µM

Complete the entry with TGI for CCOC(=O)CCn1ncc(Cl)c(Cl)c1=O 29.3 µM

Write down TGI measured for item CCCCCCCCNCCC[C@@H](C)[C@H]1CC[C@H]2[C@@H]3[C@H](OCCCN)C[C@H]4C[C@H](OCCCN)CC[C@]4(C)[C@H]3C[C@H](OCCCN)[C@]12C 5.68 µM

Read the entry C/C(=N\Nc1nc2ccccc2n1C)c1cc2ccccc2cn1 and write its reported TGI. 3.29 µM
